system: HS 578T breast; test: NCI-60 one-dose screen, 48 h; conditions: 10 µM
This is part of a sample that, as a whole, favours compounds with a hit. Of some 83,000 tested, about 20% had one in any assay. Calls of active or inactive are those of the source. Rule for the calls: active = growth percent below 10; inactive = the rest.
Outcome codes: true (active), false (inactive)

1. CN(CCO)c1ccc(N2Cc3ccccc3OC3=C2C(=O)c2c(O)ccc(O)c2C3=O)cn1
false
2. CC(=O)[C@@]1(O)[C@H](C)C[C@H]2[C@@H]3C=C(C)C4=Cc5c(cnn5-c5ccccc5)C[C@]4(C)[C@H]3[C@@H](O)C[C@@]21C
true
3. CCCCNCC(O)c1cc2c(Cl)cc(Cl)cc2c2cc(C(F)(F)F)ccc12 (stereo not given)
true
4. Cc1[nH]n(C(=O)c2ccncc2)c(=O)c1N=Nc1ccc(O)c(C(=O)O)c1
false
5. O=C(c1ccc(C(F)(F)F)c(Cl)c1)N(Cc1ccc(Cl)cc1)c1ccc(-c2cc(C(F)(F)F)[nH]n2)c(O)c1
true
6. CCOc1cccc(/C=N/NC(=O)Cc2ccc(Nc3ccnc(C(F)(F)F)c3)cc2)c1O
false
7. [O-]/[N+](=C\c1ccccc1)CC1(O)CCCCC1
false
8. Cc1ccc(N=CNN=C(N)N)cc1
false
9. CCCCCCCCCCC(C(O)c1ccccc1)N1CCCCC1 (stereo not given)
false
10. NNC(=O)Cc1ccccc1
false
